tested on: AncSZ; experiment: phosphorylation enrichment, bacterial display (enrichment ratio); higher = better substrate or ligand; peptides without Tyr show the background;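 further: 11-residue human phosphosite peptides and single-mutation variants displayed on the E. coli surface, counted by deep sequencing, each peptide's frequency after selection divided by its frequency in the unselected input library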;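 further: frequency after pTyr selection over input frequency; kinase dosed for 20-30% of maximal phosphorylation in three min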
We begin with a simple list: items and their reported phosphorylation enrichment.

{"item-sequence": "KEINDYVEKGT [SERPINA1_Y184_Q180E]", "phosphorylation enrichment": 1.21}
{"item-sequence": "LKFAIYFEARE [LAMA2_Y1258_YF]", "phosphorylation enrichment": 1.45}
{"item-sequence": "SGDITYGQFAQ [PLCG1_Y210]", "phosphorylation enrichment": 0.596}

* * *

biological target: SHP2-C SH2; assay: SH2 binding enrichment of the phosphorylated peptide, bacterial display (enrichment ratio); higher = better substrate or ligand; peptides without Tyr show the background;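 further: peptide library displayed on the E. coli surface as eCPX fusions, selected cells deep-sequenced, score is each peptide's frequency after selection divided by its frequency in the input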
# cutoff 0.7 applies to SH2 binding enrichment; >= gives 1.0, < gives 0.0

{"item-sequence": "RQQQDYWLMDV [ANPEP_Y600_I603M]", "class": 1.0}
{"item-sequence": "RLNCIYFKDQT [RS1_Y165_W163C_YF]", "class": 1.0}
{"item-sequence": "CQAHGYFCQPI [STK11_Y156_L160P]", "class": 1.0}
{"item-sequence": "LLKNMYLMLDN [STAT1_Y203_K201N]", "class": 1.0}
{"item-sequence": "QITQVYGFFHE [PPP2CA_Y127_D131H_YF]", "class": 0.0}
{"item-sequence": "PRARTYCYKQE [KLHDC9_Y175_S171R]", "class": 1.0}
{"item-sequence": "DELDKYSEVLK [TPM1_Y60_A63V]", "class": 0.0}
{"item-sequence": "KLQKKYGPIYS [CYP17A1_Y60]", "class": 1.0}
{"item-sequence": "VDASYYGGRGV [ANTXR2_Y381]", "class": 0.0}
{"item-sequence": "ETGEPCRLSPE [EIF4G1_Y311_Y311C]", "class": 0.0}
{"item-sequence": "ALETLYKKAVK [CC2D2A_Y381_E376A]", "class": 0.0}
{"item-sequence": "LRRFIYRPPDQ [OTOF_Y1231_R1236Q]", "class": 0.0}
{"item-sequence": "RILENYGADID [DNAH5_Y596_L591R]", "class": 0.0}
{"item-sequence": "AQPHTYEEPGR [EPHA8_Y616_E612Q]", "class": 1.0}
{"item-sequence": "LNLKDYNLVGG [GNAQ_Y356_E355D]", "class": 0.0}
{"item-sequence": "SAPPSYEETVA [LITAF_Y23]", "class": 1.0}
{"item-sequence": "KRAIGHYSATS [FAM120A_Y327_Y327H]", "class": 0.0}
{"item-sequence": "GNLQENLTRHV [TGFBR2_Y336_Y336N]", "class": 0.0}
{"item-sequence": "KYVVVYFREID [IL17RB_Y447]", "class": 1.0}
{"item-sequence": "GISDEYHVIWH [GCDH_Y398_R402W]", "class": 0.0}
{"item-sequence": "EFTPLYPMLFG [SCLY_Y280]", "class": 1.0}
